Source: ChEMBL document CHEMBL1126276

Test system: Plasmodium berghei
Assay: Antimalarial activity in Plasmodium berghei infected mice (Mus musculus) after subcutaneous 640 mg/kg dose
Type: functional

# compound, experimental_target, No. of cured mice
records = [
    ("O=c1c2c(n(O)c3ccc(Cl)cc13)CC(c1cccc(C(F)(F)F)c1)C/C2=N\\CCN1CCCC1 (stereo not drawn)", "Plasmodium berghei", 4),
    ("O=C1CC(c2cccc(Br)c2)Cc2c1c(=O)c1cc(Cl)ccc1n2O (stereo not drawn)", "Plasmodium berghei", 4),
    ("CCCCNCCC/N=C1\\CC(c2ccc(Cl)c(Cl)c2)Cc2c1c(=O)c1cc(Cl)ccc1n2O (stereo not drawn)", "Plasmodium berghei", 5),
    ("CN(C)CCC/N=C1\\CC(c2ccc(Cl)c(C(F)(F)F)c2)Cc2nc3ccc(Cl)cc3c(O)c21 (stereo not drawn)", "Plasmodium berghei", 5),
    ("CN(C)CCC/N=C1\\CC(c2cccc(C(F)(F)F)c2)Cc2nc3ccc(Cl)cc3c(O)c21 (stereo not drawn)", "Plasmodium berghei", 5),
    ("CCCCNC(CC)C/N=C1\\CC(c2ccc(C(F)(F)F)cc2)Cc2c1c(=O)c1cc(Cl)ccc1n2O (stereo not drawn)", "Plasmodium berghei", 4),
    ("CCCC/N=C1\\CC(c2ccc(C(F)(F)F)cc2)Cc2c1c(=O)c1cc(Cl)ccc1n2O (stereo not drawn)", "Plasmodium berghei", 5),
    ("CN(C)CCC/N=C1\\CC(c2ccccc2C(F)(F)F)Cc2c1c(=O)c1cc(Cl)ccc1n2O (stereo not drawn)", "Plasmodium berghei", 5),
    ("CN(C)CCC/N=C1\\CC(c2ccc(C(F)(F)F)cc2)Cc2c1c(=O)c1cc(Cl)ccc1n2O (stereo not drawn)", "Plasmodium berghei", 1),
    ("CC1(C)CC(=O)c2c(nc3ccccc3c2O)C1", "Plasmodium berghei", 5),
    ("O=c1c2c(n(O)c3ccc(Cl)cc13)CC(c1cccc(C(F)(F)F)c1)C/C2=N\\C1CCN(Cc2ccccc2)CC1 (stereo not drawn)", "Plasmodium berghei", 1),
    ("O=C1CC(c2cccc(C(F)(F)F)c2)Cc2c1c(=O)c1cc(Cl)ccc1n2[O-].[Na+] (stereo not drawn)", "Plasmodium berghei", 5),
    ("CCN(CC)CCCCCCC/N=C1\\CC(c2ccc(Cl)cc2Cl)Cc2nc3ccc(Cl)cc3c(O)c21 (stereo not drawn)", "Plasmodium berghei", 5),
    ("O=C1CC(c2ccc(Cl)c(Cl)c2)Cc2c1c(=O)c1cc(Cl)ccc1n2O (stereo not drawn)", "Plasmodium berghei", 5),
    ("CCN(CC)C1CCC(/N=C2\\CC(c3ccc(Cl)c(Cl)c3)Cc3c2c(=O)c2cc(Cl)ccc2n3O)CC1 (stereo not drawn)", "Plasmodium berghei", 5),
    ("O=c1c2c(n(O)c3ccc(Cl)cc13)CC(c1ccc(Cl)c(Cl)c1)C/C2=N\\CCCN(CCO)CCO (stereo not drawn)", "Plasmodium berghei", 5),
    ("CC(C/N=C1\\CC(c2ccc(C(F)(F)F)cc2)Cc2nc3ccc(Cl)cc3c(O)c21)N(C)C (stereo not drawn)", "Plasmodium berghei", 5),
    ("CCN(CCO)CCC/N=C1\\CC(c2ccc(Cl)c(Cl)c2)Cc2c1c(=O)c1cc(Cl)ccc1n2O (stereo not drawn)", "Plasmodium berghei", 5),
]
